Target: Cytochrome P450 2C9 (Homo sapiens) (UniProt P11712)
Sequence (P11712 whole entry, looked up): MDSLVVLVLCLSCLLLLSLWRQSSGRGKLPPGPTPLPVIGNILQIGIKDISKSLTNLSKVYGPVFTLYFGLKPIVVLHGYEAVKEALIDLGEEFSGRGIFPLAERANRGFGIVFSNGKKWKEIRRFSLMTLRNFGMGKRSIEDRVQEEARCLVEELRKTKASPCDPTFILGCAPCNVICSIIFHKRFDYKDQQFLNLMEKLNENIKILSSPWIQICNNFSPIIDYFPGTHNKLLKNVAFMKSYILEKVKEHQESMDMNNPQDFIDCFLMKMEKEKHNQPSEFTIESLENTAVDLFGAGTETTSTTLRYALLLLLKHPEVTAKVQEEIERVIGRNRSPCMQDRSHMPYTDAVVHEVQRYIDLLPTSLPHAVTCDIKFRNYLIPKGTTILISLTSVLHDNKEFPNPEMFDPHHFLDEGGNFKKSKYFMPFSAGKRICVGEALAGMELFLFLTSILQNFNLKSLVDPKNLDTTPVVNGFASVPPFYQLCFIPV
Test: qHTS Assay for Inhibitors and Substrates of Cytochrome P450 2C9 (AID 883); note: potency is the fitted concentration of half-maximal effect; nearly all actives have a fitted effect of over 60% in size
Conditions: recombinant CYP2C9, luciferin-H luminescence, 60 min; series mostly up to 57.1 µM
Inconclusive results are not listed. Active and inactive are the calls of the source. Calls come from the whole dose curve; as a rule, active = well fitted inhibition curve with a large enough effect; inconclusive = small, poorly fitted or top-dose-only effect; inactive = no such curve, though single readings can be large or run the other way.

{"columns": ["smiles_data", "Potency"],
 "data": [
  ["CCNc1ncc2nc(CCc3ccccc3)c(=O)n(CCC#N)c2n1", "6.31 µM (active)"],
  ["Cn1cc(-c2nc3cnc(N4CCNCC4)nc3n(C3CC3)c2=O)c2ccccc21", "3.98 µM (active)"],
  ["CC(C)=CCc1c(O)cc(O)c2c1O[C@H](c1ccccc1)CC2=O", "3.16 µM (active)"],
  ["COc1ccc2[nH]cc(CCNc3ncncc3-c3ccccc3OC)c2c1", "0.251 µM (active)"],
  ["COc1cccc(Cn2c(=O)cnc3cnc(Nc4cccc(OC)c4)nc32)c1", "2 µM (active)"],
  ["COc1ccc2[nH]cc(CCNc3ncnc4ccc(-c5cccc(C#N)c5)cc34)c2c1", "0.0631 µM (active)"]
]}

----------
Molecular target: Ubiquitin carboxyl-terminal hydrolase 1 (Homo sapiens) (UniProt O94782)
Sequence (O94782 whole entry, looked up): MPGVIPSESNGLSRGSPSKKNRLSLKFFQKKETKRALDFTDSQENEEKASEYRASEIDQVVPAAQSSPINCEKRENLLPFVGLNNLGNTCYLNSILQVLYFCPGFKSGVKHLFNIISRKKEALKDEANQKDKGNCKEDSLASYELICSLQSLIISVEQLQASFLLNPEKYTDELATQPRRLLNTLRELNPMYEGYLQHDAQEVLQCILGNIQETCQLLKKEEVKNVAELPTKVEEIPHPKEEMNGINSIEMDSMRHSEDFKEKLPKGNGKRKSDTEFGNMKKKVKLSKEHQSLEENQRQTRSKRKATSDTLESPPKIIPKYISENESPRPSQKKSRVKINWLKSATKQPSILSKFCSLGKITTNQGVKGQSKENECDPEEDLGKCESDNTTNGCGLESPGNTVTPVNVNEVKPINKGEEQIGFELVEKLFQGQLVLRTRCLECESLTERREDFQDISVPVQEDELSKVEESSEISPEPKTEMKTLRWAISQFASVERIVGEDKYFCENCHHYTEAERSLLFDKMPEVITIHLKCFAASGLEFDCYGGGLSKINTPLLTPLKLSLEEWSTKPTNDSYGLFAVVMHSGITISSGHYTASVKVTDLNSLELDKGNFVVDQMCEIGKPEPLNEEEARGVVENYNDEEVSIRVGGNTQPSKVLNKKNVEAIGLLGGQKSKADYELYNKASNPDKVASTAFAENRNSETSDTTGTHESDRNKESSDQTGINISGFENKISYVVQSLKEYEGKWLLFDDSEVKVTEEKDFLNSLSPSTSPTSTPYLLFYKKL
Assay: Inhibitors of USP1/UAF1: Pilot qHTS (AID 504865); note: nearly all actives have a fitted effect of over 35% in size
Settings: purified USP1/UAF1, Ub-rhodamine cleavage fluorescence; series mostly up to 54.9 µM
Records with an inconclusive call do not appear. Calls of active or inactive are those of the source. Calls come from the whole dose curve; as a rule, active = well fitted inhibition curve with a large enough effect; inconclusive = small, poorly fitted or top-dose-only effect; inactive = flat fitted curve, though single readings scatter.
Outcome codes: TRUE (active), FALSE (inactive)

{"columns": ["compound", "experimental_target", "assigned_class"],
 "data": [
  ["COc1ccc(/C=C/C(=O)c2cccs2)c(OC)c1", "Ubiquitin carboxyl-terminal hydrolase 1 (Homo sapiens) (UniProt O94782)", "FALSE"],
  ["COc1cccc(Nc2ncc3ncc(=O)n(Cc4ccc(F)cc4)c3n2)c1", "Ubiquitin carboxyl-terminal hydrolase 1 (Homo sapiens) (UniProt O94782)", "FALSE"],
  ["CC(=O)Oc1c2c(c3c(c1CC=C(C)C)O[C@@]14C(=CC5CC1C(C)(C)OC4(C/C=C(\\C)C(=O)O)C5=O)C3=O)OC(C)(CCC=C(C)C)C=C2 (stereo partly drawn)", "Ubiquitin carboxyl-terminal hydrolase 1 (Homo sapiens) (UniProt O94782)", "TRUE"],
  ["CN(Cc1ccco1)c1nc(-c2ccccc2C(F)(F)F)nc2ccccc12", "Ubiquitin carboxyl-terminal hydrolase 1 (Homo sapiens) (UniProt O94782)", "TRUE"],
  ["CN(C)C(=O)c1ccc(-c2nc(N3CCOCC3)c3ccccc3n2)cc1", "Ubiquitin carboxyl-terminal hydrolase 1 (Homo sapiens) (UniProt O94782)", "FALSE"],
  ["CN(C)c1ncnc2ccc(-c3cccc(NS(C)(=O)=O)c3)cc12", "Ubiquitin carboxyl-terminal hydrolase 1 (Homo sapiens) (UniProt O94782)", "FALSE"],
  ["COc1ccc(Oc2ncc3nc(-c4ccc(F)cc4)c(=O)n(C[C@H]4CCCO4)c3n2)cc1", "Ubiquitin carboxyl-terminal hydrolase 1 (Homo sapiens) (UniProt O94782)", "FALSE"],
  ["c1ccc(Nc2nc(-c3cccnc3)nc3ccccc23)cc1", "Ubiquitin carboxyl-terminal hydrolase 1 (Homo sapiens) (UniProt O94782)", "FALSE"],
  ["COc1ccc(CNc2cc(-c3cccc(NS(C)(=O)=O)c3)ncn2)c(OC)c1", "Ubiquitin carboxyl-terminal hydrolase 1 (Homo sapiens) (UniProt O94782)", "FALSE"],
  ["COCCn1c(=O)c(CCc2ccccc2)nc2cnc(N(C)C)nc21", "Ubiquitin carboxyl-terminal hydrolase 1 (Homo sapiens) (UniProt O94782)", "FALSE"],
  ["O=c1c(CCc2ccccc2)nc2cnc(N3CCNCC3)nc2n1Cc1cccs1", "Ubiquitin carboxyl-terminal hydrolase 1 (Homo sapiens) (UniProt O94782)", "FALSE"],
  ["Cc1ccccc1-c1ccc2ncnc(NCCN3CCOCC3)c2c1", "Ubiquitin carboxyl-terminal hydrolase 1 (Homo sapiens) (UniProt O94782)", "FALSE"],
  ["CC(C)CN(C[C@@H](OP(=O)(O)O)[C@H](Cc1ccccc1)NC(=O)O[C@@H]1CCOC1)S(=O)(=O)c1ccc(N)cc1", "Ubiquitin carboxyl-terminal hydrolase 1 (Homo sapiens) (UniProt O94782)", "FALSE"],
  ["S=C1NC=NC2N=CNC12 (stereo not drawn)", "Ubiquitin carboxyl-terminal hydrolase 1 (Homo sapiens) (UniProt O94782)", "FALSE"],
  ["O=c1c(-c2ccccc2)nc2cnc(N3CCOCC3)nc2n1CCc1ccccc1", "Ubiquitin carboxyl-terminal hydrolase 1 (Homo sapiens) (UniProt O94782)", "FALSE"],
  ["CCNc1ncc2nc(C)c(=O)n(CCc3ccccc3)c2n1", "Ubiquitin carboxyl-terminal hydrolase 1 (Homo sapiens) (UniProt O94782)", "FALSE"],
  ["CCOC(=O)C1(O)Oc2cc(OC)cc(OC)c2C(=O)C1c1ccccc1 (stereo not drawn)", "Ubiquitin carboxyl-terminal hydrolase 1 (Homo sapiens) (UniProt O94782)", "FALSE"],
  ["COc1ccccc1CNc1nc(-c2ccc(C(=O)N(C)C)cc2)nc2ccccc12", "Ubiquitin carboxyl-terminal hydrolase 1 (Homo sapiens) (UniProt O94782)", "FALSE"]
]}

----------
Molecular target: Rap guanine nucleotide exchange factor 3 (Homo sapiens)
Test: Counterscreen qHTS for agonist of cAMP-regulated guanine nucleotide exchange factor 3 (EPAC1) (AID 1645889); note: % of control where 0% means no effect; nearly all actives have a fitted effect of over 40% in size
Conditions: EPAC1 Rap1B-BODIPY-GDP exchange, fluorescence; series mostly up to 154 µM
From the text: Assay Provider (PI): Xiaodong Cheng Ph.D. The University of Texas Medical Branch, […], TX MLPCN Grant: NS066510 In multi-cellular eukaryotic organisms, the effects of cAMP are transduced by two ubiquitously-expressed intracellular cAMP receptors, the classic protein kinase A/cAMP-dependent protein kinase (PKA/cAPK) and the more recently discovered exchange protein directly activated by cAMP/cAMP-regulated guanine nucleotide exchange factor (EPAC/cAMP-GEF). […]
Records with an inconclusive call do not appear. Active and inactive are the calls of the source. Calls come from the whole dose curve; as a rule, active = well fitted activation curve with a large enough effect; inconclusive = small, poorly fitted or top-dose-only effect, or another doubt; inactive = no such curve, though single readings can be large or run the other way.

{"columns": ["compound", "experimental_target", "activation"],
 "data": [
  ["Cc1cccc(C)c1Nc1nn2c(=O)c3cc4c(cc3nc2s1)OCO4", "Rap guanine nucleotide exchange factor 3 (Homo sapiens)", "inactive"],
  ["O=C1Nc2ccccc2N=C(c2ccccc2)c2ccccc21", "Rap guanine nucleotide exchange factor 3 (Homo sapiens)", "39.2% [at 30.8 µM] (inactive)"],
  ["COc1ccc(N2CCN(CC(O)COc3ccc(C(C)C)c(C)c3)CC2)cc1 (stereo not given)", "Rap guanine nucleotide exchange factor 3 (Homo sapiens)", "inactive"],
  ["CC1CN(C(=O)CCC(=O)NCc2ccc(F)cc2)c2ccccc2S1 (stereo not given)", "Rap guanine nucleotide exchange factor 3 (Homo sapiens)", "31.5% [at 30.8 µM] (inactive)"],
  ["Cc1ccc(C(C)C)c(OCc2ccc(C(=O)N/N=C/c3ccc(O)c(O)c3)cc2)c1", "Rap guanine nucleotide exchange factor 3 (Homo sapiens)", "inactive"],
  ["Cc1ccc(S(=O)(=O)Nc2ccc3ccccc3c2[N+](=O)[O-])cc1", "Rap guanine nucleotide exchange factor 3 (Homo sapiens)", "inactive"],
  ["CC(=O)NC(c1cccc(F)c1)c1nc(-c2ccccc2)cs1 (stereo not given)", "Rap guanine nucleotide exchange factor 3 (Homo sapiens)", "45.7% [at 30.8 µM] (inactive)"],
  ["CCOC(=O)COc1ccc(/C=C(\\C#N)c2nc3ccc(C)cc3[nH]2)cc1OC", "Rap guanine nucleotide exchange factor 3 (Homo sapiens)", "inactive"],
  ["CC(C)(C)c1cc(NCCCn2ccnc2)n2ncc(-c3ccccc3)c2n1", "Rap guanine nucleotide exchange factor 3 (Homo sapiens)", "inactive"],
  ["C[C@H](c1ccccc1)N1C[C@H](COCc2ccccc2)Oc2cc(N3CC[C@@H](O)C3)ccc2S1(=O)=O", "Rap guanine nucleotide exchange factor 3 (Homo sapiens)", "20% [at 30.8 µM] (inactive)"],
  ["COc1cccc(NS(=O)(=O)c2ccc3c(c2)C2C=CCC2C(c2ccc(C(=O)O)cc2)N3)c1 (stereo not given)", "Rap guanine nucleotide exchange factor 3 (Homo sapiens)", "inactive"],
  ["CC(=O)N1CCN(C(=O)c2[nH]c(C(F)(F)F)nc2-c2ccccc2)CC1", "Rap guanine nucleotide exchange factor 3 (Homo sapiens)", "inactive"],
  ["CC(=O)NC(c1cccc(F)c1)c1nc(-c2cccs2)cs1 (stereo not given)", "Rap guanine nucleotide exchange factor 3 (Homo sapiens)", "inactive"],
  ["CCOc1cc(/C=C(\\C#N)C(=O)Nc2cccc(C(=O)O)c2)cc(Br)c1OC(=O)c1ccc(OC)cc1", "Rap guanine nucleotide exchange factor 3 (Homo sapiens)", "inactive"],
  ["CSc1cccc(NC(=O)Cn2nnc(C(=O)NCCc3ccccc3)c2N)c1", "Rap guanine nucleotide exchange factor 3 (Homo sapiens)", "inactive"],
  ["COc1cccc(CNC(=O)COc2cc3c(c4oc(=O)cc(C)c24)CCC(C)(C)O3)c1", "Rap guanine nucleotide exchange factor 3 (Homo sapiens)", "inactive"],
  ["COc1ccc(/C=C2\\SC(=S)NC2=O)cc1OS(=O)(=O)c1ccc(NC(C)=O)cc1", "Rap guanine nucleotide exchange factor 3 (Homo sapiens)", "inactive"],
  ["Cc1cc(-c2ccc(C(C)C)c(S(=O)(=O)N3CCC(C)CC3)c2)on1", "Rap guanine nucleotide exchange factor 3 (Homo sapiens)", "0.648% [at 30.8 µM] (inactive)"],
  ["CN1C(=O)/C(=C2/C=Cc3ccccc3N2CCCS(=O)(=O)O)SC1=S", "Rap guanine nucleotide exchange factor 3 (Homo sapiens)", "inactive"],
  ["Cc1ccc2oc(C(=O)N3CCCCCC3)c(C)c2c1", "Rap guanine nucleotide exchange factor 3 (Homo sapiens)", "inactive"],
  ["COC(=O)c1cc(Sc2c(Cl)cccc2Cl)ccn1", "Rap guanine nucleotide exchange factor 3 (Homo sapiens)", "inactive"],
  ["C=C1CCN(C(Cc2ccccc2)C(=O)OC)S(=O)(=O)c2ccc(F)cc21 (stereo not given)", "Rap guanine nucleotide exchange factor 3 (Homo sapiens)", "14% [at 30.8 µM] (inactive)"],
  ["Cc1ccc(S(=O)(=O)NN2C(=O)/C(=C/c3cccnc3)SC2=S)cc1", "Rap guanine nucleotide exchange factor 3 (Homo sapiens)", "inactive"],
  ["CCCn1nc([N+](=O)[O-])c(C(C#N)c2nc3ccccc3o2)c(Cl)c1=O (stereo not given)", "Rap guanine nucleotide exchange factor 3 (Homo sapiens)", "inactive"],
  ["CN1CCN(C(=O)c2ccc(COc3ccc(C(C)(C)C)cc3)o2)CC1", "Rap guanine nucleotide exchange factor 3 (Homo sapiens)", "9.82% [at 30.8 µM] (inactive)"]
]}
